# Assay protocol: Pharmacokinetics of acylated analogs in male Sprague Dawley rats after subcutaneous injection (Example 11)
# Type: in vivo
# Measurement setup: male, Sprague Dawley, plasma; sc, rat, Table 24
Residues, ends and D or L forms follow the SMILES beside them. *: point of attachment. C16 diacid = O=C(O)CCCCCCCCCCCCCCC(=O)*; Arachidoyl = CCCCCCCCCCCCCCCCCCCC(=O)*; Stearoyl = CCCCCCCCCCCCCCCCCC(=O)*; Palmitoyl = CCCCCCCCCCCCCCCC(=O)*; Myristoyl = CCCCCCCCCCCCCC(=O)*
Experimental readout: Cmax (nM)
I only need the number, in nM, no unit after it.

Reference set (3 entries):
[
  {
    "Compound": "CCCCCCCCCCCCCC(=O)N[C@@H](Cc1c[nH]cn1)C(=O)N[C@@H](CC(C)C)C(=O)NCC(=O)N[C@@H](CC(C)C)C(=O)N[C@@H](CCC(=O)O)C(=O)N[C@@H](CCC(=O)O)C(=O)N1CCC[C@H]1C(=O)N[C@@H](CCCCN)C(=O)N[C@@H](CCCCN)C(=O)O [compound 71] (Myristoyl-HLGLEEPKK-OH; C-terminus assumed)",
    "Experimental readout": "Cmax",
    "Measured": 240
  },
  {
    "Compound": "CCCCCCCCCCCCCCCCCCCC(=O)N[C@@H](Cc1c[nH]cn1)C(=O)N[C@@H](CC(C)C)C(=O)NCC(=O)N[C@@H](CC(C)C)C(=O)N[C@@H](CCC(=O)O)C(=O)N[C@@H](CCC(=O)O)C(=O)N1CCC[C@H]1C(=O)N[C@@H](CCCCN)C(=O)N[C@@H](CCCCN)C(=O)O [compound 74] (Arachidoyl-HLGLEEPKK-OH)",
    "Experimental readout": "Cmax",
    "Measured": 250
  },
  {
    "Compound": "CCCCCCCCCCCCCCCC(=O)N[C@@H](Cc1c[nH]cn1)C(=O)N[C@@H](CC(C)C)C(=O)NCC(=O)N[C@@H](CC(C)C)C(=O)N[C@@H](CCC(=O)O)C(=O)N[C@@H](CCC(=O)O)C(=O)N1CCC[C@H]1C(=O)N[C@@H](CCCCN)C(=O)N[C@@H](CCCCN)C(=O)O [compound 72] (Palmitoyl-HLGLEEPKK-OH)",
    "Experimental readout": "Cmax",
    "Measured": 350
  }
]

# Cmax of CCCCCCCCCCCCCCCC(=O)N[C@@H](CCCCN)C(=O)N[C@@H](Cc1c[nH]cn1)C(=O)N[C@@H](Cc1c[nH]cn1)C(=O)N[C@@H](CC(C)C)C(=O)NCC(=O)N[C@@H](CC(C)C)C(=O)N[C@@H](CCC(=O)O)C(=O)N[C@@H](CCC(=O)O)C(=O)N1CCC[C@H]1C(=O)N[C@@H](CCCCN)C(=O)N[C@@H](CCCCN)C(=O)N[C@@H](CC(C)C)C(=O)N[C@@H](CCCNC(=N)N)C(=O)O [compound 78] (Palmitoyl-KHHLGLEEPKKLR-OH) = 10

The reported value for CC(C)C[C@H](NC(=O)CNC(=O)[C@H](CC(C)C)NC(=O)[C@H](Cc1c[nH]cn1)NC(=O)CCCCCCCCCCCCCCC(=O)O)C(=O)N[C@@H](CCC(=O)O)C(=O)N[C@@H](CCC(=O)O)C(=O)N1CCC[C@H]1C(=O)N[C@@H](CCCCN)C(=O)N[C@@H](CCCCN)C(=O)O [compound 75] ({C16 diacid}-HLGLEEPKK-OH; C-terminus assumed) in terms of Cmax is 580

// field: Cmax; key: CCCCCCCCCCCCCCCCCC(=O)N[C@@H](Cc1c[nH]cn1)C(=O)N[C@@H](CC(C)C)C(=O)NCC(=O)N[C@@H](CC(C)C)C(=O)N[C@@H](CCC(=O)O)C(=O)N[C@@H](CCC(=O)O)C(=O)N1CCC[C@H]1C(=O)N[C@@H](CCCCN)C(=O)N[C@@H](CCCCN)C(=O)O [compound 73] (Stearoyl-HLGLEEPKK-OH) ; value = 540

----------
# Assay protocol: Pharmacokinetics of acylated analogs in male Sprague Dawley rats after subcutaneous injection (Example 11)
# Format: in vivo
# Measurement setup: in vivo; sc, rat, Table 24
# Description: The peptides were reconstituted in saline (0.9% NaCl). Three male Sprague Dawley rats (approximately 6 weeks of age) were used per group. Subcutaneous doses were administered into the right flank of each animal at the target dose level of μmol net peptide/kg. […] The peptides were extracted with acetonitrile:water (75:25, v/v) and analyzed using developed LC-MS/MS methods as described in Example 9. […] All values below these limits of quantification were considered as zero.
Residues, ends and D or L forms follow the SMILES beside them. *: point of attachment. Palmitoyl = CCCCCCCCCCCCCCCC(=O)*
Experimental readout: Cmax (nM)
Report the value in nM with no unit label.

The value of Cmax measured for the compound CCCCCCCCCCCCCCCC(=O)NCCCC[C@H](NC(=O)[C@H](CCCCN)NC(=O)[C@@H]1CCCN1C(=O)[C@H](CCC(=O)O)NC(=O)[C@H](CCC(=O)O)NC(=O)[C@H](CC(C)C)NC(=O)CNC(=O)[C@H](CC(C)C)NC(=O)[C@@H](N)Cc1c[nH]cn1)C(=O)O [compound 76] (H-HLGLEEPKK(Palmitoyl)-OH; N-terminus and C-terminus assumed) turned out to be 500

----------
Some molecules, each annotated with its measured Tlast (last time point with detectable peptide).
# Assay protocol: Pharmacokinetics of acylated analogs in male Sprague Dawley rats after subcutaneous injection (Example 11)
# Assay type: in vivo
# Measurement setup: sc, rat, Table 24
Residues, ends and D or L forms follow the SMILES beside them. *: point of attachment. Arachidoyl = CCCCCCCCCCCCCCCCCCCC(=O)*; Palmitoyl = CCCCCCCCCCCCCCCC(=O)*; Myristoyl = CCCCCCCCCCCCCC(=O)*
All answers are understood in h, so give the number only.

Consider the following illustrative entries.
[
  {
    "Molecule": "CCCCCCCCCCCCCCCC(=O)N[C@@H](Cc1c[nH]cn1)C(=O)N[C@@H](CC(C)C)C(=O)NCC(=O)N[C@@H](CC(C)C)C(=O)N[C@@H](CCC(=O)O)C(=O)N[C@@H](CCC(=O)O)C(=O)N1CCC[C@H]1C(=O)N[C@@H](CCCCN)C(=O)N[C@@H](CCCCN)C(=O)O [compound 72] (Palmitoyl-HLGLEEPKK-OH)",
    "Measured": 8
  },
  {
    "Molecule": "CCCCCCCCCCCCCC(=O)N[C@@H](Cc1c[nH]cn1)C(=O)N[C@@H](CC(C)C)C(=O)NCC(=O)N[C@@H](CC(C)C)C(=O)N[C@@H](CCC(=O)O)C(=O)N[C@@H](CCC(=O)O)C(=O)N1CCC[C@H]1C(=O)N[C@@H](CCCCN)C(=O)N[C@@H](CCCCN)C(=O)O [compound 71] (Myristoyl-HLGLEEPKK-OH; C-terminus assumed)",
    "Measured": 6
  }
]

Now examine the next entry.
The molecule identified as CCCCCCCCCCCCCCCCCCCC(=O)N[C@@H](Cc1c[nH]cn1)C(=O)N[C@@H](CC(C)C)C(=O)NCC(=O)N[C@@H](CC(C)C)C(=O)N[C@@H](CCC(=O)O)C(=O)N[C@@H](CCC(=O)O)C(=O)N1CCC[C@H]1C(=O)N[C@@H](CCCCN)C(=O)N[C@@H](CCCCN)C(=O)O [compound 74] (Arachidoyl-HLGLEEPKK-OH) registered its Tlast (last time point with detectable peptide) at 8

----------
# Assay protocol: Pharmacokinetics in male Sprague Dawley rats after intravenous and subcutaneous injection (Example 10)
# Type: in vivo
# Measurement setup: male, Sprague Dawley, plasma, subcutaneous; sc vs iv, 1 μmol net peptide/kg, rat; read-out: F (bioavailability)
Residues, ends and D or L forms follow the SMILES beside them. *: point of attachment. Stearoyl = CCCCCCCCCCCCCCCCCC(=O)*; Palmitoyl = CCCCCCCCCCCCCCCC(=O)*
This section presents compounds with their documented bioavailability values.
Please give a number only; it is taken to be in %.

[
  {
    "Compound": "CC(C)C[C@@H]1NC(=O)CNC(=O)[C@H](CC(C)C)NC(=O)[C@H](Cc2c[nH]cn2)NC(=O)[C@H](CCCCN)NC(=O)[C@H](CCCCN)NC(=O)[C@@H]2CCCN2C(=O)[C@H](CCC(=O)O)NC(=O)[C@H](CCC(=O)O)NC1=O [SEQ ID NO: 77, Cyclic(HLGLEEPKK)] (cyclo(EEPKKHLGL))",
    "bioavailability [%]": 48
  },
  {
    "Compound": "CCCCCCCCCCCCCCCC(=O)N[C@@H](Cc1c[nH]cn1)C(=O)N[C@@H](CC(C)C)C(=O)NCC(=O)N[C@@H](CC(C)C)C(=O)N[C@@H](CCC(=O)O)C(=O)N[C@@H](CCC(=O)O)C(=O)N1CCC[C@H]1C(=O)N[C@@H](CCCCN)C(=O)N[C@@H](CCCCN)C(=O)O [SEQ ID NO: 72, C16:0-HLGLEEPKK] (Palmitoyl-HLGLEEPKK-OH; C-terminus assumed)",
    "bioavailability [%]": 35
  }
]

Query compound follows.
For this compound ( CCCCCCCCCCCCCCCCCC(=O)N[C@@H](Cc1c[nH]cn1)C(=O)N[C@@H](CC(C)C)C(=O)NCC(=O)N[C@@H](CC(C)C)C(=O)N[C@@H](CCC(=O)O)C(=O)N[C@@H](CCC(=O)O)C(=O)N1CCC[C@H]1C(=O)N[C@@H](CCCCN)C(=O)N[C@@H](CCCCN)C(=O)O [SEQ ID NO: 73, C18:0-HLGLEEPKK] (Stearoyl-HLGLEEPKK-OH; C-terminus assumed) ), measured bioavailability is 52

The origin of these recorded values is patent US20190352358A1.
